Test system: H. pylori
Test: MIC testing by broth dilution, H. pylori
Type: cell-based, Helicobacter pylori
Conditions: Furan analogues table; read-out: MIC H. pylori
Procedure: A standard broth dilution protocol was used in 96 well microplates containing a standard dilution of the microorganism to be tested in 100 microliters of the appropriate medium. […] The wells were scored visually at 24 h. The well where there was no growth was recorded as the MIC. […] In these assays, zone of inhibited growth was measured and compared by relative ratio to the zone recorded for NTZ. […]
endpoint_name: MIC (µM)
I only need the number, in µM, no unit after it.

stdin: Quick one: MIC of `Cc1ccc(-c2ccc(C(=O)Nc3ncc([N+](=O)[O-])s3)o2)cc1` ?
stdout: 1.5

stdin: What does the data say about its MIC? Entry: `O=C(Nc1ncc([N+](=O)[O-])s1)c1ccc(-c2ccc(F)cc2)o1`
stdout: 1.0

stdin: # MIC lookup, item `O=C(Nc1ncc([N+](=O)[O-])s1)c1ccc([N+](=O)[O-])o1`
stdout: 21.1

stdin: Entry `Cc1cccc(-c2ccc(C(=O)Nc3ncc([N+](=O)[O-])s3)o2)c1` : reported MIC = ?
stdout: 2.3

stdin: Please give the measured MIC for this compound: `O=C(Nc1ncc([N+](=O)[O-])s1)c1ccc(-c2ccsc2)o1`
stdout: 6.2

stdin: Requested read-out: MIC. Entry: `O=C(Nc1ncc([N+](=O)[O-])s1)c1ccc(-c2cccc([N+](=O)[O-])c2)o1`
stdout: 6.9

stdin: Entry under review: `COc1ccc(-c2ccc(C(=O)Nc3ncc([N+](=O)[O-])s3)o2)cc1` . Reported MIC?
stdout: 1.5

stdin: Item under review: `Cc1ccccc1-c1ccc(C(=O)Nc2ncc([N+](=O)[O-])s2)o1` . Reported MIC?
stdout: 3.8

stdin: Could you share which MIC value was measured for `O=C(Nc1ncc([N+](=O)[O-])s1)c1ccc(-c2cccc(Cl)c2)o1` ?
stdout: 1.1

stdin: Entry `O=C(Nc1ncc([N+](=O)[O-])s1)c1ccc(-c2ccc3c(c2)OCO3)o1` : reported MIC = ?
stdout: 1.4

stdin: Which MIC is listed for `O=C(Nc1ncc([N+](=O)[O-])s1)c1ccc(-c2ccc([N+](=O)[O-])cc2)o1` ?
stdout: 6.9

stdin: // query MIC value for entry `O=C(Nc1ncc([N+](=O)[O-])s1)c1cc(Br)c(Br)o1`
stdout: 2.8

stdin: Query (compound): `O=C(Nc1ncc([N+](=O)[O-])s1)c1ccc(-c2cccc(C(F)(F)F)c2)o1` ; field requested: MIC
stdout: 1.1

stdin: # MIC lookup, item `O=C(Nc1ncc([N+](=O)[O-])s1)c1ccc(-c2ccccc2)o1`
stdout: 2.4

stdin: Field request: MIC | item: `O=C(Nc1ncc([N+](=O)[O-])s1)c1ccc(-c2ccccc2Cl)o1`
stdout: 1.4

stdin: Fill in the blank: the reported MIC of `O=C(Nc1ncc([N+](=O)[O-])s1)c1ccc(-c2ccoc2)o1` is ____.
stdout: 1.6

stdin: Quick one: MIC for `O=C(Nc1ncc([N+](=O)[O-])s1)c1ccc(-c2cccc(F)c2)o1` ?
stdout: 1.5

stdin: Requested field: MIC. Item: `O=C(Nc1ncc([N+](=O)[O-])s1)c1cc2ccccc2o1`
stdout: 0.6

stdin: What does the data say about its MIC? Entry: `O=C(Nc1ncc([N+](=O)[O-])s1)c1ccco1`
stdout: 1.0

stdin: May I ask what MIC has been recorded for `O=C(Nc1ncc([N+](=O)[O-])s1)c1cc2cc([N+](=O)[O-])ccc2o1` ?
stdout: 4.5

====

Test system: C. jejuni
Assay: MIC testing by broth dilution, C. jejuni
Assay type: cell-based, Campylobacter jejuni
Conditions: broth dilution, Brain Heart Infusion, 24 h; read-out: MIC (μM) C. jejuni
Response field label takes y when MIC is strictly below 10 µM and n in all other cases.

stdin: Is it true that MIC reported for O=C(Nc1ncc([N+](=O)[O-])s1)c1ccc(F)c(F)c1 [VPC16b1019] is less than 10 µM?
stdout: y

stdin: Please state whether MIC is below 10 µM for Cl.O=C(Nc1ncc([N+](=O)[O-])s1)c1ccccc1OCCNC(=O)C1CCNCC1 [VPC162068]
stdout: n

stdin: # strict comparison: is reported MIC < 10 µM? input = O=C(Cc1ccccc1)Nc1ncc([N+](=O)[O-])s1 [VPC16a1013]
stdout: y

stdin: Consider the compound O=C(Nc1ncc([N+](=O)[O-])s1)C1CCCCC1 [VPC16a1010] . Is its MIC strictly less than 10 µM?
stdout: n

stdin: For this compound, is MIC lower than 10 µM? O=C(Nc1ncc([N+](=O)[O-])s1)c1ccc(C(=O)C(F)(F)F)cc1 [VPC161175]
stdout: n

====

Tested on: C. jejuni
Experiment: MIC testing by broth dilution, C. jejuni
Assay type: cell-based, Campylobacter jejuni
Details: broth dilution, Brain Heart Infusion, 24 h; read-out: MIC (μM) C. jejuni
endpoint_name: MIC
Provide the measurement as a number trailed by its unit.

stdin: Which MIC value belongs to Cl.NCCCCOc1ccccc1C(=O)Nc1ncc([N+](=O)[O-])s1 [VPC162096HCl] ?
stdout: 5.4 µM

stdin: // MIC lookup, key: `O=C(NCCOc1ccccc1C(=O)Nc1ncc([N+](=O)[O-])s1)Nc1ccccc1`
stdout: 74.9 µM

stdin: Bench note: what MIC did `O=C(Nc1ncc([N+](=O)[O-])s1)c1ccncc1` show?
stdout: 24.0 µM

stdin: MIC for `CC(=O)Oc1cc(C#N)ccc1C(=O)Nc1ncc([N+](=O)[O-])s1` ?
stdout: 96.3 µM

stdin: Using the record for `O=C(O)COc1ccc(C(=O)Nc2ncc([N+](=O)[O-])s2)cc1` , report its MIC.
stdout: 99.0 µM

stdin: Suppose we examine the compound `O=C(Nc1ncc([N+](=O)[O-])s1)c1cc(F)c(F)cc1F` ; what MIC value has been reported?
stdout: 9.9 µM

stdin: // MIC lookup, key: `O=C(COc1ccccc1C(=O)Nc1ncc([N+](=O)[O-])s1)NCCN1CCOCC1`
stdout: 36.7 µM

stdin: Recorded MIC of `CC(C)(C(=O)Nc1ncc([N+](=O)[O-])s1)C(=O)Nc1ncc([N+](=O)[O-])s1` , please.
stdout: 82.8 µM

stdin: Which MIC is reported for this compound? `CC(C)(C)OC(=O)N1CCC(C(=O)NCCOc2ccccc2C(=O)Nc2ncc([N+](=O)[O-])s2)CC1`
stdout: 61.6 µM

stdin: Requested field: MIC. Item: `O=C(CCc1ccccc1)Nc1ncc([N+](=O)[O-])s1`
stdout: 1.30 µM

stdin: Given O=C(Nc1ncc([N+](=O)[O-])s1)C1CC1c1ccccc1 (stereo not drawn) , state its recorded MIC.
stdout: 26.6 µM

stdin: Which MIC is listed for `O=C(Nc1nc(Cl)c([N+](=O)[O-])s1)c1ccccc1` ?
stdout: 7.1 µM

stdin: Reported MIC, compound `N#Cc1ccc(C(=O)Nc2ncc([N+](=O)[O-])s2)cc1` : ____
stdout: 43.8 µM

stdin: Suppose we examine the compound `CS(=O)(=O)NCCOc1ccccc1C(=O)Nc1ncc([N+](=O)[O-])s1` ; what MIC value has been reported?
stdout: 51.8 µM

stdin: I am curious: what MIC value has been reported for `O=C(Nc1ncc([N+](=O)[O-])s1)c1ccc(F)cc1F` ?
stdout: 7.0 µM

stdin: Record request: MIC value, item `Cc1ncc([N+](=O)[O-])n1CCOC(=O)CCCC(=O)Nc1ncc([N+](=O)[O-])s1`
stdout: 29.1 µM

stdin: Form field: reported MIC of `Cl.O=C(COc1ccccc1C(=O)Nc1ncc([N+](=O)[O-])s1)OC1CNC1`
stdout: 77.1 µM

stdin: For `O=C(CCCc1ccccc1)Nc1ncc([N+](=O)[O-])s1` , what is its reported MIC?
stdout: 2.6 µM

====

Kindly supply the reported MIC values for the records listed here.
System: MRSA
Experiment: MIC testing by broth dilution, MRSA
Assay type: cell-based, Staphylococcus aureus
Conditions: Staphylococcus aureus, MRSA; broth dilution, Trypticase Soy, 24 h; read-out: MIC (μM) MRSA
Report the value in µM with no unit label.

stdin: Requested field: MIC. Item: CC(C)(C)OC(=O)COc1ccccc1C(=O)Nc1ncc([N+](=O)[O-])s1 [VPC162035]
stdout: 84.3

stdin: Given O=C(Nc1ccc(F)cc1)Nc1ncc([N+](=O)[O-])s1 [VPC161267] , state its recorded MIC.
stdout: 56.7

stdin: Data request, read-out MIC, for O=C(Nc1nc(Cl)c([N+](=O)[O-])s1)c1cccs1 [VPC162089]
stdout: 110

stdin: Form field: reported MIC of CC(=O)Oc1ccccc1C(=O)Nc1ncc([N+](=O)[O-])s1 [Nitazoxanide, reference compound]
stdout: 39.1

stdin: Find the recorded MIC belonging to O=C(Nc1ccccc1)c1ncc([N+](=O)[O-])s1 [VPC161232] and report it.
stdout: 32.1
